Experiment: in vivo
Conditions: Wistar, rat, plasma, iv, 10 mg/kg
measured-endpoint: MRT inf (h)
Give bare numbers, in h.

Problem: What does the record list as MRT inf for CS(=O)(=O)CCNCc1ccc(-c2ccc3ncnc(Nc4ccc(OCc5cccc(F)c5)c(Cl)c4)c3c2)o1.Cc1ccc(S(=O)(=O)O)cc1 [Lapatinib ditosylate monohydrate, reference compound] ?
Result: 35.9

----------
Experiment: in vivo
Details: male, Wistar, rat, plasma, po, 30 mg/kg, Cmax, oral 30 mg/kg, male rats, suspension in hydroxypropylmethylcellulose:Tween 80 in WFI, plasma Lapatinib
measured-endpoint: Cmax (ng/mL)
Numbers only, in ng/mL.

CS(=O)(=O)CCNCc1ccc(-c2ccc3ncnc(Nc4ccc(OCc5cccc(F)c5)c(Cl)c4)c3c2)o1 [Form I] ... 3170

# input for lookup
Problem: Need Cmax, item CS(=O)(=O)CCNCc1ccc(-c2ccc3ncnc(Nc4ccc(OCc5cccc(F)c5)c(Cl)c4)c3c2)o1.Cc1ccc(S(=O)(=O)O)cc1 [Lapatinib ditosylate monohydrate, reference compound]
Result: 3520
